Field: Vd. Provide a value for each of the compounds that follow.
Experiment: Volume of distribution at steady state in human after iv administration
Conditions: in vivo
Answers are plain numbers, in L/kg.

### Prompt // query Vd value for entry CCC1=C[C@@H]2CN(C1)Cc1c([nH]c3ccccc13)[C@@](C(=O)OC)(c1cc3c(cc1OC)N(C)[C@H]1[C@@](O)(C(=O)OC)[C@H](OC(C)=O)[C@]4(CC)C=CCN5CC[C@]31[C@@H]54)C2
### Response 75.6

### Prompt Try this compound too: CCN1CCC[C@H]1CNC(=O)c1c(OC)ccc(Br)c1OC [REMOXIPRIDE]
### Response 0.7

### Prompt Try this compound too: COc1ccc([C@H](CC(=O)O)N2CCN(CCCc3ccc4c(n3)NCCC4)C2=O)cn1
### Response 0.2

### Prompt Try this compound too: Cc1cc(C)c(/C=C2\C(=O)Nc3ccccc32)[nH]1
### Response 0.98

### Prompt Try this compound too: CCOc1cc(Cc2cnc(N)nc2N)cc(OCC)c1-n1cccc1 [EPIROPRIM]
### Response 2.5

### Prompt Try this compound too: CC1COc2c(N3CCN(C)CC3)c(F)cc3c(=O)c(C(=O)O)cn1c23 (stereo not drawn)
### Response 1.78

### Prompt Try this compound too: C[C@H]1NCc2cc(-c3ccc4c(=O)c(C(=O)O)cn(C5CC5)c4c3OC(F)F)ccc21
### Response 1

### Prompt Try this compound too: COc1ccc(Cl)cc1[C@]1(F)C(=O)Nc2cc(C(F)(F)F)ccc21
### Response 2.35

### Prompt Try this compound too: OC(CCN1CCCCC1)(c1ccccc1)C1CC2C=CC1C2 (stereo not drawn)
### Response 6.2

### Prompt Try this compound too: CN(C)CCCN1c2ccccc2Sc2ccc(Cl)cc21
### Response 11.2

Required: Vd, one value per compound below.
1. Cc1ncc2n1-c1ccc(Cl)cc1C(c1ccccc1F)=NC2
2. CCCN1CCC[C@@H](c2cccc(S(C)(=O)=O)c2)C1
3. CC#C[C@]1(O)CC[C@H]2[C@@H]3CCC4=CC(=O)CCC4=C3[C@@H](c3ccc(N(C)C)cc3)C[C@@]21C

### Response
[1.1, 2.2, 0.3]

---

Assay: Volume of distribution at steady state in dog after iv administration
Conditions: in vivo
Field: Vd. Provide a value for each of the compounds that follow.
Give bare numbers, in L/kg.

### Prompt // query Vd value for entry CCC1=C[C@@H]2CN(C1)Cc1c([nH]c3ccccc13)[C@@](C(=O)OC)(c1cc3c(cc1OC)N(C)[C@H]1[C@@](O)(C(=O)OC)[C@H](OC(C)=O)[C@]4(CC)C=CCN5CC[C@]31[C@@H]54)C2
### Response 49.6

### Prompt Try this compound too: CCCN1CCC[C@@H](c2cccc(S(C)(=O)=O)c2)C1
### Response 2.5

### Prompt Try this compound too: COc1ccc([C@H](CC(=O)O)N2CCN(CCCc3ccc4c(n3)NCCC4)C2=O)cn1
### Response 0.9

Required: Vd, one value per compound below.
1. Cc1cc(C)c(/C=C2\C(=O)Nc3ccccc32)[nH]1
2. COc1ccc(Cl)cc1[C@]1(F)C(=O)Nc2cc(C(F)(F)F)ccc21
3. COC(=O)C1=C(C)NC(C)=C(C(=O)OC)C1c1ccccc1[N+](=O)[O-]
4. C[C@H]1NCc2cc(-c3ccc4c(=O)c(C(=O)O)cn(C5CC5)c4c3OC(F)F)ccc21

### Response
1: 1.4; 2: 3.2; 3: 1.15; 4: 1.3

---

Field: clearance. Provide a value for each of the compounds that follow.
Experiment: Clearance in human after iv administration
Settings: in vivo
Numbers only, in mL/min/kg.

Look over these answered cases.
### Prompt // query clearance value for entry Cc1cc(C)c(/C=C2\C(=O)Nc3ccccc32)[nH]1 [SEMAXANIB]
### Response 14

### Prompt Try this compound too: Cc1ncc2n1-c1ccc(Cl)cc1C(c1ccccc1F)=NC2 [MIDAZOLAM]
### Response 6.6

### Prompt Try this compound too: CC1COc2c(N3CCN(C)CC3)c(F)cc3c(=O)c(C(=O)O)cn1c23 (centres undefined) [OFLOXACIN]
### Response 4.53

Required: clearance, one value per compound below.
1. COc1ccc([C@@H]2Sc3ccccc3N(CCN(C)C)C(=O)[C@@H]2OC(C)=O)cc1 [DILTIAZEM]
2. CCC1=C[C@@H]2CN(C1)Cc1c([nH]c3ccccc13)[C@@](C(=O)OC)(c1cc3c(cc1OC)N(C)[C@H]1[C@@](O)(C(=O)OC)[C@H](OC(C)=O)[C@]4(CC)C=CCN5CC[C@]31[C@@H]54)C2 [VINORELBINE]
3. COc1ccc(Cl)cc1[C@]1(F)C(=O)Nc2cc(C(F)(F)F)ccc21 [FLINDOKALNER]
4. C[C@H]1NCc2cc(-c3ccc4c(=O)c(C(=O)O)cn(C5CC5)c4c3OC(F)F)ccc21 [GARENOXACIN]
5. CCOc1cc(Cc2cnc(N)nc2N)cc(OCC)c1-n1cccc1 [EPIROPRIM]
6. CCCN1CCC[C@@H](c2cccc(S(C)(=O)=O)c2)C1
7. CCN1CCC[C@H]1CNC(=O)c1c(OC)ccc(Br)c1OC [REMOXIPRIDE]

### Response
[12, 21, 7.63, 1.2, 3.5, 7.2, 1.7]

Required: clearance, one value per compound below.
1. OC(CCN1CCCCC1)(c1ccccc1)C1CC2C=CC1C2 (centres undefined) [BIPERIDEN]
2. COc1ccc([C@H](CC(=O)O)N2CCN(CCCc3ccc4c(n3)NCCC4)C2=O)cn1
3. CC#C[C@]1(O)CC[C@H]2[C@@H]3CCC4=CC(=O)CCC4=C3[C@@H](c3ccc(N(C)C)cc3)C[C@@]21C [MIFEPRISTONE]
4. CN(C)CCCN1c2ccccc2Sc2ccc(Cl)cc21 [CHLORPROMAZINE]

### Response
1. 15.3
2. 1
3. 0.33
4. 4.3

---

Field: clearance. Provide a value for each of the compounds that follow.
Assay: Clearance in dog after iv administration
Settings: in vivo
One number for each entry, in mL/min/kg.

Look over these answered cases.
### Prompt // query clearance value for entry CCN1CCC[C@H]1CNC(=O)c1c(OC)ccc(Br)c1OC [REMOXIPRIDE]
### Response 4.9

### Prompt Try this compound too: COc1ccc([C@H](CC(=O)O)N2CCN(CCCc3ccc4c(n3)NCCC4)C2=O)cn1
### Response 5.4

Now look at this entry.
### Prompt // query clearance value for entry CN(C)CCCN1c2ccccc2Sc2ccc(Cl)cc21
### Response 53

---

Assay: Volume of distribution at steady state in rat after iv administration
Conditions: in vivo
Field: Vdss. Provide a value for each of the compounds that follow.
One number for each entry, in L/kg.

Look over these answered cases.
### Prompt // query Vdss value for entry CCN1CCC[C@H]1CNC(=O)c1c(OC)ccc(Br)c1OC [REMOXIPRIDE]
### Response 4.5

### Prompt Try this compound too: COc1ccc(Cl)cc1[C@]1(F)C(=O)Nc2cc(C(F)(F)F)ccc21
### Response 3.4

### Prompt Try this compound too: COc1ccc([C@H](CC(=O)O)N2CCN(CCCc3ccc4c(n3)NCCC4)C2=O)cn1
### Response 1.5

### Prompt Try this compound too: COc1ccc([C@@H]2Sc3ccccc3N(CCN(C)C)C(=O)[C@@H]2OC(C)=O)cc1
### Response 3.6

Continuing:
### Prompt // query Vdss value for entry CCCN1CCC[C@@H](c2cccc(S(C)(=O)=O)c2)C1
### Response 1.5
